Tested on: Candida albicans
Assay Comment: Antifungal activity against Candida albicans SC5314 assessed as fungal growth inhibition incubated for 72 hrs by CLSI based susceptibility test
Format: functional
Answer each item with its documented log10 of MIC50.
Record value = log10 of MIC50 given in µg/mL.

Solved cases below.
> print(dat)
                                   compound  reported.measurement
1  CC(=O)N1CCN(c2ccc(OCC3COC(Cn4ccnc4)(c4ccc(Cl)cc4Cl)O3)cc2)CC1 (stereo not given) [KETOCONAZOLE]                 -0.60
2  Cc1c(COc2cccc(CN[C@H](Cn3cncn3)C(=O)OC(C)C)c2)cccc1-c1ccccc1                  0.30
3  CCOC(=O)[C@@H](Cn1ccnc1)NC(=O)C1CCCN(Cc2cccc(-c3ccccc3)c2C)C1 (stereo not given in full)                 -0.60
4  CCOC(=O)[C@@H](Cn1cncn1)NCc1cccc(OCc2cccc(-c3ccccc3)c2C)c1                  0.00
5  COC(=O)[C@@H](Cn1cncn1)NC(=O)C1CCCN(C(=O)c2cccc(-c3ccccc3)c2)C1 (stereo not given in full)                 -0.30

Give measured log10 of MIC50 for every item shown.
1. Cc1c(COc2cccc(CN[C@H](Cn3ccnc3)C(=O)OC(C)C)c2)cccc1-c1ccccc1
2. COC(=O)[C@@H](Cn1cncn1)NC(=O)C1CCCN(Cc2cccc(-c3ccccc3)c2C)C1 (stereo not given in full)
3. COC(=O)[C@@H](Cn1ccnc1)NC(=O)C1CCCN(C(=O)c2cccc(-c3ccccc3)c2)C1 (stereo not given in full)
4. COC(=O)[C@@H](Cn1cncn1)NCc1cccc(OCc2cccc(-c3ccccc3)c2C)c1
5. Cc1c(CN2CCCC(C(=O)N[C@H](Cn3cncn3)C(=O)OC(C)C)C2)cccc1-c1ccccc1 (stereo not given in full)
6. CCOC(=O)[C@@H](Cn1ccnc1)NC(=O)C1CCCN(C(=O)c2cccc(-c3ccccc3)c2)C1 (stereo not given in full)
7. CCOC(=O)[C@@H](Cn1cncn1)NC(=O)C1CCCN(C(=O)c2cccc(-c3ccccc3)c2)C1 (stereo not given in full)

Data returned:
1: -0.60; 2: -0.30; 3: 0.00; 4: -0.90; 5: -0.90; 6: -0.30; 7: -0.60

Give measured log10 of MIC50 for every item shown.
1. CCOC(=O)[C@@H](Cn1cncn1)NC(=O)C1CCCN(Cc2cccc(-c3ccccc3)c2C)C1 (stereo not given in full)
2. COC(=O)[C@@H](Cn1ccnc1)NCc1cccc(OCc2cccc(-c3ccccc3)c2C)c1
3. Cc1c(CN2CCCC(C(=O)N[C@H](Cn3ccnc3)C(=O)OC(C)C)C2)cccc1-c1ccccc1 (stereo not given in full)
4. COC(=O)[C@@H](Cn1ccnc1)NC(=O)C1CCCN(Cc2cccc(-c3ccccc3)c2C)C1 (stereo not given in full)
5. CC(C)OC(=O)[C@@H](Cn1ccnc1)NC(=O)C1CCCN(C(=O)c2cccc(-c3ccccc3)c2)C1 (stereo not given in full)
6. CC(C)OC(=O)[C@@H](Cn1cncn1)NC(=O)C1CCCN(C(=O)c2cccc(-c3ccccc3)c2)C1 (stereo not given in full)
7. OC(Cn1cncn1)(Cn1cncn1)c1ccc(F)cc1F [FLUCONAZOLE]
8. CCOC(=O)[C@@H](Cn1ccnc1)NCc1cccc(OCc2cccc(-c3ccccc3)c2C)c1

Data returned:
[-0.60, -0.30, -0.30, -0.30, -0.60, -0.30, -0.30, -0.30]
